B1: YPEL3 (parent)
chain: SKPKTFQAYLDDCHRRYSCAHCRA

Variants of: B1
Test: protein stability index of a GFP-peptide fusion (GPS, HEK-293T) (PSI 1-6); higher = more stable;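 further: lentivirally expressed fusions sorted by FACS into six bins by GFP to DsRed ratio, PSI derived from sequencing read proportions per bin multiplied by bin number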
Details: c terminus: a fixed tail appended
quantity_measured: protein stability index
Number only, no unit.

# protein stability index (variant: F6T ) is 3.23

# protein stability index (variant: K2T ) is 2.19

# protein stability index (variant: R15A ) is 2.1

# protein stability index (variant: Q7P ) is 2.8

# protein stability index (variant: D12N ) is 2.12

# protein stability index (variant: K2A ) is 2.18

# protein stability index (variant: P3Y ) is 1.72

# protein stability index (variant: T5H ) is 2.57

# protein stability index (variant: R23P ) is 2.11

# protein stability index (variant: D11H ) is 2.37

# protein stability index (variant: K2F ) is 1.88

# protein stability index (variant: F6V ) is 2.81

# protein stability index (variant: R23K ) is 2.03

# protein stability index (variant: D11K ) is 2.83
